Test system: ryegrass, Italian
TEST NAME: Test C pre-/postemergence herbicide test
Type: in vivo, Lolium multiflorum
TEST PARAMETERS: Preemergence, 250 g ai/ha
MEASUREMENT NAME: Plant response rating (scale of 0 to 100), Ryegrass, Italian

>>> experimental_value("Cc1ccccc1NC(=O)C1C(=O)NCC1c1cccc(C(F)(F)F)c1 (racemic)")
70
>>> experimental_value("O=C1NCC(c2cccc(OC(F)F)c2)C1C(=O)Nc1cccc(F)c1F (stereo not shown)")
15
>>> experimental_value("CN1CC(c2ccc(C(F)(F)F)cc2)C(C(=O)Nc2cccc(F)c2F)C1=O (stereo not shown)")
70
>>> experimental_value("O=C1NCC(c2ccc(F)c(F)c2)C1C(=O)Nc1cccc(F)c1F (racemic)")
50
